measuredTarget: feline FcRn (FCN-F82W3, Acrobiosystems) (feline)
experimentSummary: SPR Carterra, IgG coupled, pH 6.0
Below, each entry is listed alongside its reported koff.
Answer format: numeric, s⁻¹ implied, no suffix.

{"binder": "anti-NGF feline IgG1a, Fc variant S434Y, E293K (antibody, part only; not given: anti-NGF variable domains, light chain, not shown: another chain or arm of the molecule; small tags and cut ends) Fc: PPEMLGGPSIFIFPPKPKDTLSISRTPEVTCLVVDLGPDDSDVQITWFVDNTQVYTAKTSPRKEQFNSTYRVVSVLPILHQDWLKGKEFKCKVNSKSLPSPIERTISKAKGQPHEPQVYVLPPAQEELSRNKVSVTCLIKSFHPPDIAVEWEITGQPEPENNYRTTPPQLDSDGTYFVYSKLSVDRSHWQRGNTYTCSVSHEALHYHHTQKSLTQSPGK", "koff (s⁻¹)": 0.00501}
{"binder": "anti-NGF feline IgG1a, Fc variant R392E (antibody, part only; not given: anti-NGF variable domains, light chain, not shown: another chain or arm of the molecule; small tags and cut ends) Fc: PPEMLGGPSIFIFPPKPKDTLSISRTPEVTCLVVDLGPDDSDVQITWFVDNTQVYTAKTSPREEQFNSTYRVVSVLPILHQDWLKGKEFKCKVNSKSLPSPIERTISKAKGQPHEPQVYVLPPAQEELSRNKVSVTCLIKSFHPPDIAVEWEITGQPEPENNYETTPPQLDSDGTYFVYSKLSVDRSHWQRGNTYTCSVSHEALHSHHTQKSLTQSPGK", "koff (s⁻¹)": 0.0324}

Ask | Quick one: koff for anti-NGF feline IgG1a, Fc variant Q311V (antibody, part only; not given: anti-NGF variable domains, light chain, not shown: another chain or arm of the molecule; small tags and cut ends) Fc: PPEMLGGPSIFIFPPKPKDTLSISRTPEVTCLVVDLGPDDSDVQITWFVDNTQVYTAKTSPREEQFNSTYRVVSVLPILHVDWLKGKEFKCKVNSKSLPSPIERTISKAKGQPHEPQVYVLPPAQEELSRNKVSVTCLIKSFHPPDIAVEWEITGQPEPENNYRTTPPQLDSDGTYFVYSKLSVDRSHWQRGNTYTCSVSHEALHSHHTQKSLTQSPGK ?
Reply | 0.0505
